Data origin: patent US20210093531A1

Quick reference for AUC among some compounds
Tested on: trained panelists
Assay: time-intensity analysis of cooling, mouthwash application
Assay type: in vivo
Conditions: rinse phase 30 seconds (Table 9a)
Marks after values point to notes of the source that are not given here.

Look over these answered cases.
| Compound | AUC |
| --- | --- |
| CCCCN(CCCC)CC(=O)O[C@@H]1C[C@H](C)CC[C@H]1C(C)C [Product 10] | 182.05^a |
| CC(C)[C@@H]1CC[C@@H](C)C[C@H]1OC(=O)CNC1CC1 [Product 12] | 186.88^a |
| CC(C)[C@@H]1CC[C@@H](C)C[C@H]1OC(=O)CN(C)C(C)C [Product 16] | 180.91^a |

Moving on to another compound below.
Prompt: Report AUC for CC1CCC(C(C)C)C(O)C1 (stereo not shown) [Menthol, menthol] please.
Completion: 168.97^a
